subject.of.test: UniProtKB P32245
Sequence (P32245 whole entry): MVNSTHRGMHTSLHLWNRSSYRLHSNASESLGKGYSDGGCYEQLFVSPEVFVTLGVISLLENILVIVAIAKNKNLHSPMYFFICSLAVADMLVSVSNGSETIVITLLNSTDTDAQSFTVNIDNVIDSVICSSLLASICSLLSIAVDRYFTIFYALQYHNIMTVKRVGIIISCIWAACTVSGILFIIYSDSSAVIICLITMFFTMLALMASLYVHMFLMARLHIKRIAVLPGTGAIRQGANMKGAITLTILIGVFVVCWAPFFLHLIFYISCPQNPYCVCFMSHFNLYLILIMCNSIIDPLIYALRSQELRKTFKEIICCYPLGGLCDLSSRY
experiment.description: Inhibitory concentration of compound was determined against hMC4R through displacement of NDP-MSH radioligand using HEK293 cells
Square brackets hold non-standard residues; d marks the D form. Peptide text beside a SMILES is read from it. * marks the point of attachment. Phe(3-CF3) = N[C@@H](Cc1cccc(C(F)(F)F)c1)C(=O)O; Phe(4-Br) = N[C@@H](Cc1ccc(Br)cc1)C(=O)O; Phe(4-Cl) = N[C@@H](Cc1ccc(Cl)cc1)C(=O)O; Butyryl = CCCC(=O)*
endpoint.name: IC50 (nM)

Worked cases, answers included:
[
  {
    "molecule": "CCCC(=O)N[C@@H](Cc1c[nH]cn1)C(=O)N[C@H](Cc1ccc(Cl)c(Cl)c1)C(=O)N[C@@H](CCCN=C(N)N)C(=O)N[C@@H](Cc1c[nH]c2ccccc12)C(=O)NCC(N)=O",
    "IC50 [nM]": 4
  },
  {
    "molecule": "CCCC(=O)N[C@@H](Cc1c[nH]cn1)C(=O)N[C@@H](Cc1ccc(OC)cc1)C(=O)N[C@@H](CCCN=C(N)N)C(=O)N[C@@H](Cc1c[nH]c2ccccc12)C(=O)NCC(N)=O (Butyryl-HY(Me)RWG-NH2)",
    "IC50 [nM]": 120
  },
  {
    "molecule": "CCCC(=O)N[C@@H](Cc1cnc[nH]1)C(=O)N[C@@H](Cc1ccc(Cl)cc1)C(=O)N[C@@H](CCCNC(=N)N)C(=O)N[C@@H](Cc1c[nH]c2ccccc12)C(=O)NCC(N)=O (Butyryl-H[Phe(4-Cl)]RWG-NH2)",
    "IC50 [nM]": 80
  },
  {
    "molecule": "CCCC(=O)N[C@@H](Cc1c[nH]cn1)C(=O)N[C@@H](Cc1ccc(Br)cc1)C(=O)N[C@@H](CCCN=C(N)N)C(=O)N[C@@H](Cc1c[nH]c2ccccc12)C(=O)NCC(N)=O (Butyryl-H[Phe(4-Br)]RWG-NH2)",
    "IC50 [nM]": 22
  },
  {
    "molecule": "CCCC(=O)N[C@@H](Cc1cnc[nH]1)C(=O)N[C@@H](Cc1cccc(C(F)(F)F)c1)C(=O)N[C@@H](CCCNC(=N)N)C(=O)N[C@@H](Cc1c[nH]c2ccccc12)C(=O)NCC(N)=O (Butyryl-H[Phe(3-CF3)]RWG-NH2)",
    "IC50 [nM]": 300
  },
  {
    "molecule": "CCCC(=O)N[C@@H](Cc1c[nH]cn1)C(=O)NC(Cc1ccccc1)C(=O)N[C@@H](CCCN=C(N)N)C(=O)N[C@@H](Cc1cccc2ccccc12)C(=O)NCC(N)=O (single isomer, unassigned)",
    "IC50 [nM]": 600
  }
]

(I) CCCC(=O)N[C@@H](Cc1c[nH]cn1)C(=O)NC(Cc1ccccc1)C(=O)N[C@@H](CCCN=C(N)N)C(=O)N[C@@H](Cc1ccc2ccccc2c1)C(=O)NCC(N)=O (single isomer, unassigned)
(II) CCCC(=O)N[C@@H](Cc1c[nH]cn1)C(=O)N[C@H](Cc1cccc2ccccc12)C(=O)N[C@@H](CCCN=C(N)N)C(=O)N[C@@H](Cc1c[nH]c2ccccc12)C(=O)NCC(N)=O
## Task // task: argmin of IC50 over [ I , II ] When you have decided, please share the label of that item.
## Result I
(I: 50 nM, II: 350 nM)

(a) CCCC(=O)N[C@@H](Cc1cnc[nH]1)C(=O)N[C@@H](Cc1ccccc1)C(=O)N[C@@H](CCCNC(=N)N)C(=O)N[C@@H](Cc1c[nH]c2ccccc12)C(=O)NCC(N)=O
(b) CCCC(=O)N[C@@H](Cc1cnc[nH]1)C(=O)N[C@H](Cc1ccccc1)C(=O)N[C@@H](CCCNC(=N)N)C(=O)N[C@@H](Cc1csc2ccccc12)C(=O)NCC(N)=O
(c) CCCC(=O)N[C@@H](Cc1c[nH]cn1)C(=O)NC(Cc1ccc(OCC)cc1)C(=O)N[C@@H](CCCN=C(N)N)C(=O)N[C@@H](Cc1c[nH]c2ccccc12)C(=O)NCC(N)=O (single isomer, unassigned)
(d) CCCC(=O)N[C@@H](Cc1c[nH]cn1)C(=O)N[C@H](Cc1ccc2ccccc2c1)C(=O)N[C@@H](CCCN=C(N)N)C(=O)N[C@@H](Cc1c[nH]c2ccccc12)C(=O)NCC(N)=O
## Task List by increasing IC50. To answer, arrange all of the labels according to the requested order.
## Result d, c, a, b
(d: 30 nM, c: 100 nM, a: 150 nM, b: 1000 nM)
